Data provenance: paper PMC8597757

experiment: Food effect assessment (100 mg suspension, high-fat meal vs fasted); format: in vivo, human; details: human; single oral dose 100 mg (fed), suspension, following a high-fat meal, plasma, n=6; read-out: C168hr (geometric mean [95% CI])
measured property: concentration at 168 h (nM)
Kindly answer with a numeric value in nM, unit omitted.

Query: If you can, please state the reported concentration at 168 h value of N#Cc1cc(Cl)cc(Oc2c(C(F)(F)F)ncn(Cc3cc(C(F)(F)F)c(=O)[nH]n3)c2=O)c1 [MK-8507] .
Result: 310

====

test: Single-dose plasma pharmacokinetics of MK-8507 (suspension, study 1; tablet, study 2); format: in vivo; conditions: human, po, 2 mg, single oral dose 2 mg, suspension, fasted, n=6, read-out: Cmax (geometric mean [95% CI])
measured property: Cmax (nM)
Kindly answer with a numeric value in nM, unit omitted.

Query: If you can, please state the reported Cmax value of N#Cc1cc(Cl)cc(Oc2c(C(F)(F)F)ncn(Cc3cc(C(F)(F)F)c(=O)[nH]n3)c2=O)c1 [MK-8507] .
Result: 50
